tested on: INS-1E rat beta cells, no cytokines, CellTiter-Glo ATP, 48 h; assay: cytokine-free beta-cell viability effect – INS-1E rat cells, ATP luminescence, cherry pick, counter-screen for beta-cell apoptosis protection project, dose response (AID 463229)
Measured AC50 accompanies every entry in the list below.

O=C(Nc1cccc(Cl)c1)Nc1nnc(-c2ccncc2)s1 ... 6.36 µM
O=C(NCc1ccccc1)C1=C[C@H](c2csc3ccccc23)C[C@H](OCCCCO)O1 ... 6.75 µM
Cc1ccc(Nc2c(-c3ccccn3)nc3ccc(C)cn23)cc1 ... 7.28 µM
CC(=O)Nc1ccc(S(=O)(=O)NC2=C(N3CCN(c4ccc(F)cc4)CC3)C(=O)c3ccccc3C2=O)cc1 ... 7.51 µM
CCc1ccc(Nc2n[n+](-c3ccccc3)c(-c3c(Cl)cccc3Cl)s2)cc1 ... 4.08 µM

Lab note: INS-1E rat beta cells, no cytokines, CellTiter-Glo ATP, 48 h assay, enter AC50 for CCn1cc(C(=O)O)c(=O)c2cc(F)c(N/N=C/c3ccccc3[N+](=O)[O-])cc21 here
7.62 µM

Write down the reported AC50 (system: INS-1E rat beta cells, no cytokines, CellTiter-Glo ATP, 48 h) of O=C(N/N=C/c1cc(Br)cc(Cl)c1O)c1ccc2c(c1)OCO2
11 µM

State, for INS-1E rat beta cells, no cytokines, CellTiter-Glo ATP, 48 h, measured AC50 of the compound listed here: COc1ccc(-c2c[n+]3c(n2-c2ccc(C)cc2)CCCCC3)cc1
0.317 µM

Give reported AC50 for Oc1ccccc1C(Nc1nccs1)c1ccc2cccnc2c1O (configuration not stated) (INS-1E rat beta cells, no cytokines, CellTiter-Glo ATP, 48 h)
4.91 µM

State measured AC50 of the compound CCCC[C@@H](CN[C@H](C)CNC)NCC1CCC(C(C)(C)C)CC1 (some centres not stated) with INS-1E rat beta cells, no cytokines, CellTiter-Glo ATP, 48 h.
15 µM

Using INS-1E rat beta cells, no cytokines, CellTiter-Glo ATP, 48 h as the test system, report measured AC50 of Clc1ccc(C(Cn2ccnc2)OCc2csc3c(Cl)cccc23)c(Cl)c1 (configuration not stated) .
14.6 µM

Answer with AC50 of Cc1noc(-c2ccc(C(F)(F)F)cc2)c1NC(=O)Nc1ccc(Cl)cc1 measured for INS-1E rat beta cells, no cytokines, CellTiter-Glo ATP, 48 h.
7.7 µM
